# pEC50 values compiled below
tested on: Middle East respiratory syndrome-related coronavirus; experiment: Antiviral activity against MERS-CoV infected in African green monkey Vero E6 cells incubated for 48 hrs by neutral red uptake assay; assay type: functional, organism-based; conditions: Vero C1008, 48 h
pEC50: −log10 of the molar value.

CN(C)Cc1c[nH]c2ccc(OCc3ccccc3)cc12; 4.49
CCc1cccc2c3c([nH]c12)C(CC)(CC(=O)O)OCC3 (stereo not drawn); < 4.00

Exercise: Dear colleague, I am looking for the recorded pEC50 of the following compound: O=C(OCc1ccccc1)N1c2ccccc2CC1CO (stereo not drawn)
Key: < 4.00
